For each record, write down the corresponding fraction unbound.
Biological target: albumin (Homo sapiens, UniProt P02768)
Sequence (P02768 whole entry): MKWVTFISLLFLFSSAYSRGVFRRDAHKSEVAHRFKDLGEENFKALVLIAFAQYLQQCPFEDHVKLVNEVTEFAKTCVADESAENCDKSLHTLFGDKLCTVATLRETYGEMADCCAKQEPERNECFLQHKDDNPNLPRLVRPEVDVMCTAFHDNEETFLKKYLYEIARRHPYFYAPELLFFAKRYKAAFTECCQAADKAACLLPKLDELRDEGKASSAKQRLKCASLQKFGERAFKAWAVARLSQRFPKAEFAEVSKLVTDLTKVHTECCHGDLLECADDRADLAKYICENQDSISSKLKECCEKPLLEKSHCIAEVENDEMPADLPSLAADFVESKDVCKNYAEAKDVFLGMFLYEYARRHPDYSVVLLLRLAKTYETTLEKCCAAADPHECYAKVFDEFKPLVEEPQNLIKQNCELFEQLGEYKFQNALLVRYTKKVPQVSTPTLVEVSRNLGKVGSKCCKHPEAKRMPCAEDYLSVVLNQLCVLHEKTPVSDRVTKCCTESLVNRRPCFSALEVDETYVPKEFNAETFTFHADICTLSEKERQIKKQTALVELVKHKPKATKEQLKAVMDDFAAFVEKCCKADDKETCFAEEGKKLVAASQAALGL
Assay: Percentage plasma protein binding towards human serum albumin
Assay type: cell-free
Settings: read-out: PB (converted)

## Task State the recorded fraction unbound for this entry: CC(C)NCC(O)c1ccc(NS(C)(=O)=O)cc1 (stereo not given) [SOTALOL]
## Result 0.825

## Task Consider next the molecule NS(=O)(=O)c1cc2c(cc1Cl)NCNS2(=O)=O [HYDROCHLOROTHIAZIDE] in the same way.
## Result 0.42

## Task Consider next the molecule Cc1cc(CC(=O)O)n(C)c1C(=O)c1ccc(Cl)cc1 [ZOMEPIRAC] in the same way.
## Result 0.015

## Task Consider next the molecule C[C@@H](C(=O)NS(C)(=O)=O)c1ccc(OS(=O)(=O)C(F)(F)F)cc1 [LADARIXIN] in the same way.
## Result 0.002

## Task Consider next the molecule CC(C)Cc1ccc([C@@H](C)C(=O)NCCOCCO)cc1 in the same way.
## Result 0.169

* * *

For each record, write down the corresponding fraction unbound.
Target: albumin (Homo sapiens, UniProt P02768)
Test: Percentage plasma protein binding towards human serum albumin
Type: cell-free
Conditions: read-out: PB (converted)
Response field accepts a number only; no unit should be typed.

## Task State the recorded fraction unbound for this entry: C[C@@H](C(=O)NCCCN1CCCC1)c1ccc(OS(=O)(=O)C(F)(F)F)cc1
## Result 0.38

## Task Consider next the compound CC(C)Cc1ccc([C@@H](C)C(=O)NCCCN(C)C)cc1 in the same way.
## Result 0.249

## Task Consider next the compound COc1ccc2c(c1)CN(c1ccc(C(C)C(=O)O)cc1)C2=O (stereo not given) in the same way.
## Result 0.02

## Task Consider next the compound CC1=C(CC(=O)O)c2cc(F)ccc2/C1=C\c1ccc([S+](C)[O-])cc1 (stereo not given) in the same way.
## Result 0.06

## Task Consider next the compound CC(C(=O)O)c1ccc(-c2ccccc2)c(F)c1 (stereo not given) [FLURBIPROFEN] in the same way.
## Result 0.005

## Task Consider next the compound O=C(c1ccccc1)c1ccc2n1CCC2C(=O)O (stereo not given) [KETOROLAC] in the same way.
## Result 0.008

## Task Consider next the compound CC(Cc1ccc([C@@H](C)C(=O)NS(C)(=O)=O)cc1)C(=O)O (stereo not given in full) in the same way.
## Result 0.298

## Task Consider next the compound CC(C)Cc1ccc([C@@H](C)C(=O)N[C@H](C)C(=O)O)cc1 in the same way.
## Result 0.04

## Task Consider next the compound CC(C)Cc1ccc([C@@H](C)C(=O)NS(C)(=O)=O)cc1 [REPARIXIN] in the same way.
## Result 0.001

## Task Consider next the compound C[C@@H](C(N)=O)c1ccc(OS(=O)(=O)C(F)(F)F)cc1 in the same way.
## Result 0.08
